Hello, the source for this data is patent US20250257060A1, in case you need it.

# target: HDAC6 (Homo sapiens (Human), UniProt Q9UBN7)
# Sequence (Q9UBN7 whole entry): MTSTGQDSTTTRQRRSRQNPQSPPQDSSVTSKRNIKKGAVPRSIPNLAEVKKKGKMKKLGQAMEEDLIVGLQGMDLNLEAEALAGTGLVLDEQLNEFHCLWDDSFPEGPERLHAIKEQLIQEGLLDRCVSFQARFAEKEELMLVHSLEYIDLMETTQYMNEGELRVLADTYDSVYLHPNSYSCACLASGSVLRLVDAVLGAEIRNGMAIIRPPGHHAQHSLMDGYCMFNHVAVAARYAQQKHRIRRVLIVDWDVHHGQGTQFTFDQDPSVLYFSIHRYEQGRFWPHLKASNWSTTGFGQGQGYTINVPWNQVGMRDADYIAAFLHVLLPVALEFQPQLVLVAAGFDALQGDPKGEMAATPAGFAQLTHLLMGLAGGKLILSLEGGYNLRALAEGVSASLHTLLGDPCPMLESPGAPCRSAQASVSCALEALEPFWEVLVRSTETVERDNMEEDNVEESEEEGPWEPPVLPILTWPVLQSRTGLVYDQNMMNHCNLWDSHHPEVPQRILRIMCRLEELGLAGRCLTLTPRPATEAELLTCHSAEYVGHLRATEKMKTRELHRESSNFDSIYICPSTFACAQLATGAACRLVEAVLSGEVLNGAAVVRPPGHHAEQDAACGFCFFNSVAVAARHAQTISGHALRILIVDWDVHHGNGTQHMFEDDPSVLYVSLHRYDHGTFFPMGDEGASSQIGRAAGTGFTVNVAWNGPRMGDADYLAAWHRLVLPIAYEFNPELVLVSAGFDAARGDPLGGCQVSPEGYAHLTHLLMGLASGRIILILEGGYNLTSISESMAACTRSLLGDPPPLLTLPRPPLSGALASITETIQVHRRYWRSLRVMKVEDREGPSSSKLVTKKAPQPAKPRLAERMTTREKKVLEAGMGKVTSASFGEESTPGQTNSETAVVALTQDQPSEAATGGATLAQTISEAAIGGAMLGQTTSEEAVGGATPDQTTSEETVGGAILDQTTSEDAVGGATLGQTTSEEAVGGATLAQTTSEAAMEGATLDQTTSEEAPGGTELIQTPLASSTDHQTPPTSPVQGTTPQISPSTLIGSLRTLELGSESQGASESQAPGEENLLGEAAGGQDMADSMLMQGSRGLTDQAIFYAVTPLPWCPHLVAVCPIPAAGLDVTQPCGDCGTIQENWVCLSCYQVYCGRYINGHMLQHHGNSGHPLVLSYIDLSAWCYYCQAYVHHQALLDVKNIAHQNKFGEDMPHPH
# reported IC50; entries follow
The figure you give is taken to be in nM; do not add the unit.

molecule: O=S1(=O)c2cc(-c3nnc(C(F)F)o3)ccc2CN1Cc1cccc(Cl)c1
IC50 [nM]: 490
--
molecule: CC(F)(F)C(=O)N[C@@H]1CCCC(F)(F)[C@H]1N1Cc2ccc(-c3nnc(C(F)F)o3)cc2S1(=O)=O
IC50 [nM]: 43.1

Okay, next one:
Data request: Fill in IC50 for record O=S1(=O)c2cc(-c3nnc(C(F)F)o3)ccc2CN1[C@@H](c1ncccn1)[C@H](O)c1ncccn1 [Compound 103j-A]
Data returned: 285

----------
Measured pIC50, listed per entry for reference.
# target: HDAC6 (Homo sapiens (Human))
Would you please state pIC50, meaning minus log10 of the concentration in mol/L, as a bare number?

Check out these entries, answers already filled in.
molecule: Cn1cc([C@@H](O)[C@H](c2cnn(C)c2)N2Cc3ccc(-c4nnc(C(F)F)o4)cc3S2(=O)=O)cn1 (single isomer, unassigned) [Compound 95j-B-A]
pIC50: 7.18

molecule: Cn1cc([C@@H](O)[C@H](c2cnn(C)c2)N2Cc3ccc(-c4nnc(C(F)F)o4)cc3S2(=O)=O)cn1 (single isomer, unassigned) [Compound 95j-A]
pIC50: 6.64

molecule: O=S1(=O)c2cc(-c3nnc(C(F)F)o3)ccc2CN1c1ccccc1-c1ccccn1
pIC50: 6.35

molecule: O=S1(=O)c2cc(-c3nnc(C(F)F)o3)ccc2CN1C(c1ccccn1)[C@H](O)c1ccccn1 (stereo partly drawn) [Compound 70i-A]
pIC50: 6.86

molecule: O=C(N[C@@H]1CCCC[C@H]1N1Cc2ccc(-c3nnc(C(F)F)o3)cc2S1(=O)=O)N1CCCC1
pIC50: 6.85

With those in mind, consider the next molecule.
Data request: Give the value of pIC50 reported for the following: O=S1(=O)c2cc(-c3nnc(C(F)F)o3)ccc2CN1[C@H](c1ncccn1)[C@@H](O)c1ncccn1 [Compound 103j-B]
Data returned: 6.97
